FYI, the data here is from paper PMC7280087.

# system: vonoprazan metabolism in rat liver microsomes
# test: Inhibition of vonoprazan metabolism by voriconazole in rat liver microsomes
# Type: in vitro ADME
# settings: RLM; 0-12 μM voriconazole, 5-40 μM vonoprazan; Lineweaver–Burk secondary plot
experimental endpoint: pKi
Hey, just a heads up that pKi is the negative log base 10 of the concentration in molar.

Entry C[C@@H](c1ncncc1F)[C@](O)(Cn1cncn1)c1ccc(F)cc1F [Voriconazole, voriconazole] , pKi reported as 5.57
